- Tested on: HL-60
- Assay explanation: NCI tumour cell line growth inhibition, 48 h
The source made the active and inactive calls. Rule as the data show it: active = GI50 up to about 1.1 µM and inactive = higher.
# valid calls are label 1 = active, label 0 = inactive; nothing else

Compound	Label class
COC(=O)C(CCSC)NC(=O)CSc1nnc(COc2ccc(Cl)cc2)n1-c1ccccc1 (stereo not given)	label 0
CN(C)C(=S)/N=c1\ssc(=S)n1Cc1ccco1	label 1
N=c1c2c(=S)n(-c3ccccc3)c(=S)n(-c3ccccc3)c2nc(SCCN2CCOCC2)n1-c1ccccc1	label 0
FC(F)(F)c1ccccc1N1CCN(c2nc(-c3cccs3)nc3ccc(Br)cc23)CC1	label 0

Please look at the following compound next.
Exercise: Could you kindly confirm the outcome this assay logged for O=c1oc2c(Cl)cc(Cl)cc2cc1C1=CSC2=NCCN12 ?
Key: label 0

* * *

- Tested on: MOLT-4
- Assay explanation: NCI tumour cell line growth inhibition, 48 h
Calls of active or inactive are those of the source. No stated cut-off is given here; in the data, active = GI50 up to about 1.1 µM and inactive = higher.
Reported values of GI50 for individual entries

Compound	Measured
Cc1nnc2n1N=C(c1cc(F)c(Cl)cc1Cl)/C(=C/c1ccc(-c3ccc([N+](=O)[O-])cc3)o1)S2	29.2 µM (inactive)
CC(C)[C@@H]1NC(=O)[C@@H]2N=C(O[C@H]2C)[C@H](C(C)C)NC(=O)C2N=C1O[C@H]2C	> 100 µM (inactive)

Looking up Cc1ccc(C(=O)c2[nH]c(NCc3ccccc3)c(C(=S)Nc3ccccc3)c2N)cc1 , I found its GI50 recorded as 2.83 µM (inactive)

Looking up COc1cc(Br)c(/C=N\c2cccc3cc(OC)c(OC)cc23)cc1OC , I found its GI50 recorded as 26.8 µM (inactive)

Looking up O/N=C1\CC2(N3CCOCC3)CCC1(c1ccccc1)CC2 , I found its GI50 recorded as > 100 µM (inactive)

Looking up COC(=O)C(=O)CC(=O)c1cccc(OC)c1 , I found its GI50 recorded as > 100 µM (inactive)

* * *

Reported values of GI50 for individual entries
- Test system: BT-549
- Assay explanation: NCI tumour cell line growth inhibition, 48 h
Calls of active or inactive are those of the source. No stated cut-off is given here; in the data, active = GI50 up to about 1.1 µM and inactive = higher.

Some molecules with known GI50 results, for comparison:
Molecule	Measured
S=C=NC1CCC(c2cc3ccccc3s2)(N2CCCCC2)CC1 (centres undefined)	2.09 µM (inactive)
COc1ccc(CCNC2=CC(=O)c3ncccc3C2=O)cc1OC	1.3 µM (inactive)
CCc1nc(N)nc(N)c1-c1ccc2nnn(O)c2c1	> 100 µM (inactive)

Looking up C(CCCCc1nnc(N2CCOCC2)o1)CCCc1nnc(N2CCOCC2)o1 , I found its GI50 recorded as > 100 µM (inactive)

* * *

- Tested on: 786-0
- Assay explanation: NCI tumour cell line growth inhibition, 48 h
Structures can show the parent of a compound that is named as a salt. The source made the active and inactive calls. Rule as the data show it: active = GI50 up to about 1.1 µM and inactive = higher. Positions of bridges follow the written chain, without caps; N, C: chain ends. Non-standard residues stand in square brackets, D forms with d. Residues, ends and D or L forms follow the SMILES beside them. Aib = CC(C)(N)C(=O)O; βAla = NCCC(=O)O
# valid calls are label 1 = active, label 0 = inactive; nothing else

Take a look at these entries with their results.
Compound	Label class
CC(C)[Si](OCC/C=C/C1CCC(=O)C1C(O)C1CCCCC1)(C(C)C)C(C)C (stereo not given)	label 0
CC(C(=O)O)/C(=C\c1ccc2c(c1)OCO2)C(=O)O (stereo not given)	label 0
N=c1c2c(=S)n(-c3ccccc3)c(=S)n(-c3ccccc3)c2nc(SCCN2CCOCC2)n1-c1ccccc1	label 0

Exercise: Could you kindly confirm the outcome this assay logged for Oc1ccc(Cl)cc1-c1cc(-c2ccccc2)nc(NCN2CCCCC2)n1 ?
Key: label 0

Exercise: Could you kindly confirm the outcome this assay logged for CN(C)CCOc1ccc(/C(=C(/CCCl)c2ccccc2)c2ccccc2)cc1 [TOREMIFENE CITRATE] ?
Key: label 0

Exercise: Could you kindly confirm the outcome this assay logged for CCOC(=O)CC/C(=N/Nc1ccc(Cl)cc1[N+](=O)[O-])C(=O)OCC ?
Key: label 0

Exercise: Could you kindly confirm the outcome this assay logged for COc1ccc(C2c3cc4c(cc3OC3(OC)COC(=O)C23)OCO4)c(OC)c1 (stereo not given) ?
Key: label 0

Exercise: Could you kindly confirm the outcome this assay logged for O=C1CC(C[C@H](O)C2CCCCC2O)CC(=O)N1Cc1ccccc1 (stereo not given in full) ?
Key: label 0

Exercise: Could you kindly confirm the outcome this assay logged for NC(=S)Nc1nnc(-c2ccc(-c3nnc(NC(N)=S)o3)cc2)o1 ?
Key: label 0

Exercise: Could you kindly confirm the outcome this assay logged for Cc1c(C)c(S(=O)(=O)N(CCCN)OCCCN)c(C)c2c1OC(C)(C)CC2 ?
Key: label 0

Exercise: Could you kindly confirm the outcome this assay logged for Cc1nnc2n1N=C(c1cc(F)c(Cl)cc1Cl)/C(=C/c1ccc(-c3ccc([N+](=O)[O-])cc3)o1)S2 ?
Key: label 0

Exercise: Could you kindly confirm the outcome this assay logged for CC1(C)NC(=O)C(NC(=O)C(N)CC(=O)O)CCCCNC(=O)CCNC1=O (stereo not given) (H-DK[Aib][βAla]; lactam 2-C; configuration not given here) ?
Key: label 0

Exercise: Could you kindly confirm the outcome this assay logged for OC(CCNC12CC3CC(CC(C3)C1)C2)c1ccccc1 (stereo not given) ?
Key: label 0

Exercise: Could you kindly confirm the outcome this assay logged for CC(SC(=S)N1CCCC1)C(=O)Nc1nnc(-c2ccc(Cl)cc2)o1 (stereo not given) ?
Key: label 0

Exercise: Could you kindly confirm the outcome this assay logged for Cc1nc(N)nc(N)c1CCCc1ccccc1 ?
Key: label 0

Exercise: Could you kindly confirm the outcome this assay logged for CC#Cc1ccc(-c2ccccc2)s1 ?
Key: label 0

Exercise: Could you kindly confirm the outcome this assay logged for CCCCCCCCCCCCCCCCNc1cccc2ccccc12 ?
Key: label 0

Exercise: Could you kindly confirm the outcome this assay logged for COc1nc2c(c(=O)n1C)N(C(C)=O)C1C(N2)OCC(OC(C)=O)C1OC(C)=O (stereo not given) ?
Key: label 0
